test-description: physchem
conditions-used: buffer, pH 7.4

{"columns": ["item-smiles", "half-life"],
 "data": [
  ["O=C(O)/C(O)=C/C(=O)c1cc(Cc2ccccc2)cn(Cc2ccccc2)c1=O", "> 41 h"]
]}

----------
test-description: in vitro
conditions-used: human, pooled liver microsomes
outcome-measure: half-life

{"columns": ["compound", "measured"],
 "data": [
  ["O=C(O)/C(O)=C/C(=O)c1cc(Cc2ccccc2)cn(Cc2ccccc2)c1=O [Compound 8]", "> 6 h"]
]}

Origin of the recorded values: patent US20100092427A1
